Recorded measurements of EC50, one per entry
Tested on: M. tuberculosis H37Rv_DdnL49P_gfp
Assay type: cell-based, Mycobacterium tuberculosis
Details: read-out: EC50 H37Rv_DdnL49P_gfp
MEASURED PARAMETER: EC50

- MOLECULE: "CC(C)(C)c1ccc2nc(NC(=O)[C@@H]3C4C=CC(C4)[C@@H]3C(=O)O)sc2c1 (stereo partly shown)"
  MEASURED PARAMETER: "EC50"
  OBSERVED VALUE: "< 1000 nM"
- MOLECULE: "Cc1ccnc(Oc2ccc3nc(N4C(=O)[C@@H]5C6C=CC(C6)[C@@H]5C4=O)sc3c2)c1"
  MEASURED PARAMETER: "EC50"
  OBSERVED VALUE: "< 1000 nM"
- MOLECULE: "O=C1[C@@H]2[C@H](C(=O)N1c1nc3ccc(-c4ccoc4)cc3s1)[C@@H]1C=C[C@H]2C1"
  MEASURED PARAMETER: "EC50"
  OBSERVED VALUE: "1000 to 5000 nM"
- MOLECULE: "O=C1[C@@H]2[C@H](C(=O)N1c1nc3ccc(Oc4ccc(C(F)(F)F)cn4)cc3s1)[C@@H]1C=C[C@H]2C1"
  MEASURED PARAMETER: "EC50"
  OBSERVED VALUE: "< 1000 nM"

====

System: M. tuberculosis H37Rv_DdnL49P_gfp
Assay type: cell-based, Mycobacterium tuberculosis
Settings: read-out: EC50 H37Rv_DdnL49P_gfp

- MOLECULE: "O=C1[C@@H]2[C@H](C(=O)N1c1nc3ccc(-c4ccc(C(F)(F)F)nc4)cc3s1)[C@@H]1C=C[C@H]2C1"
  SYSTEM NAME: "M. tuberculosis H37Rv_DdnL49P_gfp"
  EC50: "1 to 5 µM"
- MOLECULE: "O=C(Nc1nc2ccc(Oc3ccncc3)cc2s1)[C@@H]1C2C=CC(C2)[C@@H]1C(=O)O (stereo partly shown)"
  SYSTEM NAME: "M. tuberculosis H37Rv_DdnL49P_gfp"
  EC50: "5 to 10 µM"
- MOLECULE: "O=C(Nc1nc2ccc(-c3ccccc3)cc2s1)[C@@H]1C2C=CC(C2)[C@@H]1C(=O)O (stereo partly shown)"
  SYSTEM NAME: "M. tuberculosis H37Rv_DdnL49P_gfp"
  EC50: "1 to 5 µM"
- MOLECULE: "O=C(Nc1nc2cc3c(cc2s1)OCCO3)[C@@H]1C2C=CC(C2)[C@@H]1C(=O)O (stereo partly shown)"
  SYSTEM NAME: "M. tuberculosis H37Rv_DdnL49P_gfp"
  EC50: "10 to 20 µM"
- MOLECULE: "O=C1[C@@H]2[C@H](C(=O)N1c1nc3ccc(-c4ccsc4)cc3s1)[C@@H]1C=C[C@H]2C1"
  SYSTEM NAME: "M. tuberculosis H37Rv_DdnL49P_gfp"
  EC50: "1 to 5 µM"
- MOLECULE: "O=C1[C@@H]2[C@H](C(=O)N1c1nc3ccc(Oc4ccc(C(F)(F)F)cc4)cc3s1)[C@@H]1C=C[C@H]2C1"
  SYSTEM NAME: "M. tuberculosis H37Rv_DdnL49P_gfp"
  EC50: "1 to 5 µM"
- MOLECULE: "O=C1[C@@H]2[C@H](C(=O)N1c1nc3ccc(Oc4ncccc4C(F)(F)F)cc3s1)[C@@H]1C=C[C@H]2C1"
  SYSTEM NAME: "M. tuberculosis H37Rv_DdnL49P_gfp"
  EC50: "1 to 5 µM"

====

Test system: M. tuberculosis H37Rv_DdnL49P_gfp
Type: cell-based, Mycobacterium tuberculosis
Details: read-out: EC50 H37Rv_DdnL49P_gfp
Measured EC50, listed per entry for reference.
MEASURED PARAMETER: EC50

- MOLECULE: "O=C(Nc1nc2ccc(Nc3cncc(C(F)(F)F)c3)cc2s1)[C@@H]1C2C=CC(C2)[C@@H]1C(=O)O (stereo partly shown)"
  MEASURED PARAMETER: "EC50"
  OBSERVED VALUE: "5 to 10 µM"
- MOLECULE: "Cc1cc(C)c2nc(NC(=O)[C@@H]3C4C=CC(C4)[C@@H]3C(=O)O)sc2c1 (stereo partly shown)"
  MEASURED PARAMETER: "EC50"
  OBSERVED VALUE: "1 to 5 µM"
- MOLECULE: "O=C1[C@@H]2[C@H](C(=O)N1c1nc3ccc(OC(F)(F)F)cc3s1)[C@@H]1C=C[C@H]2C1"
  MEASURED PARAMETER: "EC50"
  OBSERVED VALUE: "5 to 10 µM"
- MOLECULE: "C#Cc1ccc2nc(N3C(=O)[C@@H]4[C@H](C3=O)[C@@H]3C=C[C@H]4C3)sc2c1"
  MEASURED PARAMETER: "EC50"
  OBSERVED VALUE: "1 to 5 µM"
- MOLECULE: "O=C(Nc1nc2ccc(-c3ccc(C(F)(F)F)cc3)cc2s1)[C@@H]1C2C=CC(C2)[C@@H]1C(=O)O (stereo partly shown)"
  MEASURED PARAMETER: "EC50"
  OBSERVED VALUE: "< 1 µM"
- MOLECULE: "Cc1cccc2sc(NC(=O)[C@@H]3C4C=CC(C4)[C@@H]3C(=O)O)nc12 (stereo partly shown)"
  MEASURED PARAMETER: "EC50"
  OBSERVED VALUE: "1 to 5 µM"
- MOLECULE: "O=C1[C@@H]2C3C=CC(C3)[C@@H]2C(=O)N1c1nc2ccc(Nc3ccc(F)cn3)cc2s1"
  MEASURED PARAMETER: "EC50"
  OBSERVED VALUE: "< 1 µM"

====

Test system: M. tuberculosis H37Rv_DdnL49P_gfp
Type: cell-based, Mycobacterium tuberculosis
Settings: read-out: EC50 H37Rv_DdnL49P_gfp
pEC50: −log10 of the molar value.
MEASURED PARAMETER: pEC50

- COMPOUND: "CCOc1ccc2nc(NC(=O)[C@@H]3C4C=CC(C4)[C@@H]3C(=O)O)sc2c1 (some centres unmarked) [Example 7]"
  MEASURED PARAMETER: "pEC50"
  OBSERVED VALUE: "> 6.00"
- COMPOUND: "O=C(Nc1nc2ccc(F)cc2s1)[C@@H]1C2C=CC(C2)[C@@H]1C(=O)O (some centres unmarked) [Example 42]"
  MEASURED PARAMETER: "pEC50"
  OBSERVED VALUE: "5.30 to 6.00"
- COMPOUND: "O=C(Nc1nc2ccc(-c3cccc(C(F)(F)F)c3)cc2s1)[C@@H]1C2C=CC(C2)[C@@H]1C(=O)O (some centres unmarked) [Example 59]"
  MEASURED PARAMETER: "pEC50"
  OBSERVED VALUE: "5.30 to 6.00"
- COMPOUND: "COc1ccc(-c2ccc3nc(NC(=O)[C@@H]4C5C=CC(C5)[C@@H]4C(=O)O)sc3c2)cc1 (some centres unmarked) [Example 54]"
  MEASURED PARAMETER: "pEC50"
  OBSERVED VALUE: "> 6.00"
- COMPOUND: "O=C1[C@@H]2C3C=CC(C3)[C@@H]2C(=O)N1c1nc2ccc(Nc3ccnc(C(F)(F)F)c3)cc2s1 [Example 90]"
  MEASURED PARAMETER: "pEC50"
  OBSERVED VALUE: "> 6.00"
- COMPOUND: "CC(C)(C)C#Cc1ccc2nc(NC(=O)[C@@H]3C4C=CC(C4)[C@@H]3C(=O)O)sc2c1 (some centres unmarked) [Example 78]"
  MEASURED PARAMETER: "pEC50"
  OBSERVED VALUE: "> 6.00"
- COMPOUND: "O=C(Nc1nc2ccc(C(F)(F)F)cc2s1)[C@@H]1C2C=CC(C2)[C@@H]1C(=O)O (some centres unmarked) [Example 43]"
  MEASURED PARAMETER: "pEC50"
  OBSERVED VALUE: "5.30 to 6.00"
- COMPOUND: "Cc1ccc2sc(NC(=O)[C@@H]3C4C=CC(C4)[C@@H]3C(=O)O)nc2c1C (some centres unmarked) [Example 15]"
  MEASURED PARAMETER: "pEC50"
  OBSERVED VALUE: "5.30 to 6.00"
- COMPOUND: "O=C(Nc1nc2ccc(Oc3ccccc3)cc2s1)[C@@H]1C2C=CC(C2)[C@@H]1C(=O)O (some centres unmarked) [Example 18]"
  MEASURED PARAMETER: "pEC50"
  OBSERVED VALUE: "> 6.00"
- COMPOUND: "N#Cc1ccc2nc(NC(=O)[C@@H]3C4C=CC(C4)[C@@H]3C(=O)O)sc2c1 (some centres unmarked) [Example 40]"
  MEASURED PARAMETER: "pEC50"
  OBSERVED VALUE: "5.00 to 5.30"
- COMPOUND: "O=C(Nc1nc2ccc(C3CCCCC3)cc2s1)[C@@H]1C2C=CC(C2)[C@@H]1C(=O)O (some centres unmarked) [Example 52]"
  MEASURED PARAMETER: "pEC50"
  OBSERVED VALUE: "5.30 to 6.00"
